- SETUP_CONDITIONS: in isopropyl acetate, 318.15 K
READOUT_LABEL: solubility (mole fraction)

Query string: For "O=C(O)CCCc1c[nH]c2ccccc12" , what is its reported solubility (mole fraction)?
Result string: 0.124

----------
- SETUP_CONDITIONS: in ethanol, 283.15 K
READOUT_LABEL: solubility (mole fraction)
Could you keep your reply to the number by itself?

Query string: Please look up its solubility (mole fraction): "O=C(O)CCCc1c[nH]c2ccccc12"
Result string: 0.048

----------
- SETUP_CONDITIONS: in methyl acetate, 298.15 K
READOUT_LABEL: solubility (mole fraction)
// return a plain number; no unit text

Query string: Which solubility (mole fraction) reading was recorded for the compound "O=C(O)CCCc1c[nH]c2ccccc12" ?
Result string: 0.0812

----------
- SETUP_CONDITIONS: in isobutanol, 308.15 K
READOUT_LABEL: solubility (mole fraction)
Respond using a number only.

Query string: So what's the measured solubility (mole fraction) for this one? "O=C(O)CCCc1c[nH]c2ccccc12"
Result string: 0.0581

----------
- SETUP_CONDITIONS: in isopentanol, 318.15 K
READOUT_LABEL: solubility (mole fraction)
Give your answer as a number; write no unit.

Query string: Would you mind telling me what solubility (mole fraction) value was observed for "O=C(O)CCCc1c[nH]c2ccccc12" ?
Result string: 0.0985

----------
- SETUP_CONDITIONS: in isopentanol, 288.15 K
READOUT_LABEL: solubility (mole fraction)
// print number alone

Query string: # query: solubility (mole fraction) of entry "O=C(O)CCCc1c[nH]c2ccccc12"
Result string: 0.0348

----------
- SETUP_CONDITIONS: in methyl acetate, 288.15 K
READOUT_LABEL: solubility (mole fraction)
# output: bare number, no unit

Query string: Which solubility (mole fraction) is listed for "O=C(O)CCCc1c[nH]c2ccccc12" ?
Result string: 0.0623

----------
- SETUP_CONDITIONS: in isobutanol, 288.15 K
READOUT_LABEL: solubility (mole fraction)

Query string: Consider the molecule shown here: "O=C(O)CCCc1c[nH]c2ccccc12" What is its recorded solubility (mole fraction)?
Result string: 0.0253

----------
- SETUP_CONDITIONS: in n-butanol, 308.15 K
READOUT_LABEL: solubility (mole fraction)
Write the value as a bare number.

Query string: Can you look up the measured solubility (mole fraction) of "O=C(O)CCCc1c[nH]c2ccccc12" for me?
Result string: 0.0786

----------
- SETUP_CONDITIONS: in isopropyl acetate, 303.15 K
READOUT_LABEL: solubility (mole fraction)
Keep the answer to the number alone.

Query string: Suppose we examine the compound "O=C(O)CCCc1c[nH]c2ccccc12" ; what solubility (mole fraction) value has been reported?
Result string: 0.0905

----------
- SETUP_CONDITIONS: in n-butyl acetate, 318.15 K
READOUT_LABEL: solubility (mole fraction)

Query string: Any idea what its solubility (mole fraction) is? The compound is "O=C(O)CCCc1c[nH]c2ccccc12"
Result string: 0.129

----------
- SETUP_CONDITIONS: in isopropyl acetate, 323.15 K
READOUT_LABEL: solubility (mole fraction)
Give the figure only, with no unit attached.

Query string: Fill blank: measured solubility (mole fraction) of the compound "O=C(O)CCCc1c[nH]c2ccccc12" is ____.
Result string: 0.149

Source: BigSolDB 2.1
